These measurements were taken from the RNAGym collection of RNA variant scans (doi:10.7554/elife.80360).

B1: CPEB3 Ribozyme (parent)
chain: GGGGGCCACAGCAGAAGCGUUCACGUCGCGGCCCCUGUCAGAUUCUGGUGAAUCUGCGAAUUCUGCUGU

Variants of: B1
Test: self-cleavage, relative activity (ratio to wild type); higher = more cleavage; co-transcriptional
Please use fulfilled whenever self-cleavage is not below 0.5, and not fulfilled whenever it is.

> print(dat)
                               sequence.data  discrete.label
 1  GGGGACCACAGCAGAAGCGUUCACGUCGCGGCCCCUGUCAGAUUCUGGUGAAUGUGCGAAUUCUGCUGU [G5A C54G]   not fulfilled
 2  GGGGGUCACUGCAGAAGCGUUCACGUCGCGGCCCCUGUCAGAUUCUGGUGAAUCUGCGAAUUCUGCUGU [C6U A10U]       fulfilled
 3  GGGGGCCACAGCAGUAGCUUUCACGUCGCGGCCCCUGUCAGAUUCUGGUGAAUCUGCGAAUUCUGCUGU [A15U G19U]   not fulfilled
 4  GGGGGCCACAGCAGAAGCUUUCACGUCGCGGCCCCUGUCAGAUUCUGGUGAAUCUGCGAACUCUGCUGU [G19U U61C]   not fulfilled
 5  GGGGGCCACAGCAGAAGCGUUCACGUCGCGGCCCCUGUUAGAUUCUGGUGAAUCUGCGAACUCUGCUGU [C39U U61C]   not fulfilled
 6  GGUGGCCACAGCAGAAGCGUUCACGUCGCGGCCCCUGUCGGAUUCUGGUGAAUCUGCGAAUUCUGCUGU [G3U A40G]   not fulfilled
 7  GGGGGCCACAGCAGAAGCGUUCAAGUCGCGGCCCCUGUCAGAUUCUGGUGAAUCUACGAAUUCUGCUGU [C24A G56A]       fulfilled
 8  GGGGGCCACAGCAGAAGCGUUCACGUCGCGGCGCCUGUCAGAUUCUGGUGAAUCUGCGAAUUUUGCUGU [C33G C63U]       fulfilled
 9  GGGGGCCACAGCAGACGCGUUCACGUCGCGGCCCCUGUCAGAUUCUGGUGAAUCUGCGAAUUGUGCUGU [A16C C63G]   not fulfilled
10  GGGGGCCACAGCAGAAGCGUUCACGUCGCGGCCCCUGUCGGAUUCUGGUGUAUCUGCGAAUUCUGCUGU [A40G A51U]       fulfilled
11  GGGUGCCACAGCAGAAGCGUUCACGUCGCGGCCCCUGUCAGAUUCUGGUGAAUCUGCGAAUUCGGCUGU [G4U U64G]       fulfilled
12  GGGGGCCACAGCAGAAGCGUUCACGUCGCGGCCCCAGUCAGAUUCUGGUGAAUCUGCGGAUUCUGCUGU [U36A A59G]   not fulfilled
13  GGAGGCCACAGCAGUAGCGUUCACGUCGCGGCCCCUGUCAGAUUCUGGUGAAUCUGCGAAUUCUGCUGU [G3A A15U]   not fulfilled
14  GGGGGCCACAGCAGAAGCGUUCACGUCGCGGCCCCUGUCAGAUUCUGAUGAAUCUGGGAAUUCUGCUGU [G48A C57G]   not fulfilled
15  GGGUGCCACAGCAGAAGCGUUCACCUCGCGGCCCCUGUCAGAUUCUGGUGAAUCUGCGAAUUCUGCUGU [G4U G25C]   not fulfilled
16  GGGGGCGACUGCAGAAGCGUUCACGUCGCGGCCCCUGUCAGAUUCUGGUGAAUCUGCGAAUUCUGCUGU [C7G A10U]       fulfilled
17  GGGGGCCACAGCAGAAGCGUUCUCGUCGCGGCCCCUGUCAGAUUCUGGUGAAUGUGCGAAUUCUGCUGU [A23U C54G]       fulfilled
18  GGGGGCCACAGCAGAAGCGUUCACGUCGCGGCCCCUGUCAGAUUCUGGUGGAGCUGCGAAUUCUGCUGU [A51G U53G]       fulfilled
19  GGGGGCCACAGCAGAAGCGUUCACGUCGCGGCCCCUGUCAGAUUCUGGUGAAUCUGCGAACUCUGCUAU [U61C G68A]       fulfilled
20  GAGGGCCACAGCAGAAGCGUUCACGUCGCUGCCCCUGUCAGAUUCUGGUGAAUCUGCGAAUUCUGCUGU [G2A G30U]   not fulfilled
21  GGGGGCCACAGCAGAAGCGUUCACGUCGCGGCCCCUGUCAUAUUCUGGUGAAUCUGCGAAUUCUGGUGU [G41U C66G]   not fulfilled
22  GGGGGCCACAGCAGAAGCGUUCACGUCGCGGCCCCUGUCAGUUUCUGGUGAAUCUGCGAAGUCUGCUGU [A42U U61G]   not fulfilled
23  GGGGGCCACAGCAGAAGCUUUCACGCCGCGGCCCCUGUCAGAUUCUGGUGAAUCUGCGAAUUCUGCUGU [G19U U26C]   not fulfilled
24  GGGGGCCACAGCAGAAGCCUUCACGUCGCGGCCACUGUCAGAUUCUGGUGAAUCUGCGAAUUCUGCUGU [G19C C34A]   not fulfilled
25  GGGGGCCACAGCAGAAGCGUUCACGUCGUGGCCCCUGUCAGAUUCUGGUGAAUCUGCGAAUUCUGUUGU [C29U C66U]   not fulfilled
26  GGGGGCUACAGCAGAAGCGUUCACGUCGCGGCCCCUGUCAGCUUCUGGUGAAUCUGCGAAUUCUGCUGU [C7U A42C]       fulfilled
27  GGAGGCCACAGCAGAAGCGUUCACGUCGCGGCCCCUGUCAGAUUCUGGUGAAUCUGCGAAUUCUUCUGU [G3A G65U]   not fulfilled
28  GGGGGCCACAGCAGAAGCGUUCACGUCGCGGCCCCUGUGAGAUUCUGGUGAAUCUGCGAAUUUUGCUGU [C39G C63U]       fulfilled
29  GGGGGCCACAGCAGAAGCGUUCACGUCGCGGCCCCUGGCAGCUUCUGGUGAAUCUGCGAAUUCUGCUGU [U38G A42C]   not fulfilled
30  GGGGGCCACAGCAGAAGCGUUAACGUCGCGGCCCCUUUCAGAUUCUGGUGAAUCUGCGAAUUCUGCUGU [C22A G37U]       fulfilled
31  GGGGGCCACACCAGAAGCGUUCACGUCGCGGCCCCUGUCAGAUUCUGGUGAAUCUGCGAAUUAUGCUGU [G11C C63A]   not fulfilled
32  GGGGGCCACAGCAGAAGCGUUCACGUCGCGGCCCGUGUCAGAUUCUGGUGAAUCUGCGAAAUCUGCUGU [C35G U61A]   not fulfilled
33  GGGGGCCACAGCAGAAGCGAUCCCGUCGCGGCCCCUGUCAGAUUCUGGUGAAUCUGCGAAUUCUGCUGU [U20A A23C]   not fulfilled
34  GGGGGUCACAGCAGAAGCGUUCACGUCGCGGCCCCUCUCAGAUUCUGGUGAAUCUGCGAAUUCUGCUGU [C6U G37C]   not fulfilled
35  GGGGGCCACAGCAGAAGCGUUCCCGUCGCGGCCCCUGUCAGAUUCUGGUGAAUCUGCGAAUUCCGCUGU [A23C U64C]       fulfilled
36  GGGGGCCACAGCAGAAGCAUUCACAUCGCGGCCCCUGUCAGAUUCUGGUGAAUCUGCGAAUUCUGCUGU [G19A G25A]   not fulfilled
37  GGGGGCCACAACAGAAGCCUUCACGUCGCGGCCCCUGUCAGAUUCUGGUGAAUCUGCGAAUUCUGCUGU [G11A G19C]   not fulfilled
38  GGGGGCCACAGCAGAAGCGUUCACGUCGCGGCCCCUGUUAGAUUCUGGUGAAUCUGCGAAUUCUGAUGU [C39U C66A]       fulfilled
39  GAGGGCCACAGCAGAAGCGUUCACGUCGCGGCCCCUGUCAGAUUCUGGUGAAUCUGGGAAUUCUGCUGU [G2A C57G]   not fulfilled
40  GGGGGCCACAGCAGAAGCGUUCACGUCGCGGCCCCUGUCAGAUUCAGGUGAAUCUGCGAAUUCUGCCGU [U46A U67C]       fulfilled
41  GGGGGCCACAGCAGAAGCGUUCACGUCGCGGCCCCUGUCAGAUUCUGGGGAAUCUGCGAACUCUGCUGU [U49G U61C]       fulfilled
42  GGGGGCCACAGCAGAAGCGUUCAGGUCGCGGCCCCUGUCAGAUUCUGGUGAAUCUGCGAAUUCCGCUGU [C24G U64C]   not fulfilled
43  GGGGGCCACAGGAGAAGCGUUCACGUCGCGACCCCUGUCAGAUUCUGGUGAAUCUGCGAAUUCUGCUGU [C12G G31A]   not fulfilled
44  GGGGGCGACAGCAGAAGCGCUCACGUCGCGGCCCCUGUCAGAUUCUGGUGAAUCUGCGAAUUCUGCUGU [C7G U20C]   not fulfilled
45  GGGGGCCACAGCACAAGCGUUCACGUCGCGGCCCCUGUCGGAUUCUGGUGAAUCUGCGAAUUCUGCUGU [G14C A40G]   not fulfilled
46  GGGGGCCACAGCAGAAGCGUCCACGUCGCUGCCCCUGUCAGAUUCUGGUGAAUCUGCGAAUUCUGCUGU [U21C G30U]   not fulfilled
47  GGGGGUCACAGCAGAAGCGUUCACGUCGCGUCCCCUGUCAGAUUCUGGUGAAUCUGCGAAUUCUGCUGU [C6U G31U]       fulfilled
48  GCGGGCCACAGCAGAAGCGUUCACGUCGCGGCCCCUGUCAGAUUCUGGUGAAUCUGCUAAUUCUGCUGU [G2C G58U]   not fulfilled
49  GGAGGCCACAGCAGAAGCGUUCACGUCGCGGCGCCUGUCAGAUUCUGGUGAAUCUGCGAAUUCUGCUGU [G3A C33G]   not fulfilled
50  GGGGGCCACAGCAGAAGCCUUCACGUCGCGGCCCCUGUCAGAUUCCGGUGAAUCUGCGAAUUCUGCUGU [G19C U46C]   not fulfilled
51  GGGGGCCACAGCAGAAGCGUUCACAUCGCGGCCCCUGUCAGAUUCUGGUGAAUCUGCGAACUCUGCUGU [G25A U61C]   not fulfilled
52  GGGGGCCACAGCAGAAGUGUUCGCGUCGCGGCCCCUGUCAGAUUCUGGUGAAUCUGCGAAUUCUGCUGU [C18U A23G]       fulfilled
53  GGGGGCCACAGCAGAAGCGUUCACGUCGCGGCCCCUGUCAGAUUGUGGGGAAUCUGCGAAUUCUGCUGU [C45G U49G]       fulfilled
54  GGGGGCCACAGAAGAAGCGUUCACGUCGCGGCCCCUGUCAGAUUCUGGUGAAACUGCGAAUUCUGCUGU [C12A U53A]   not fulfilled
55  GGGGGCCACAGCAGAAGCGUUCACGUCGUGGCCCCUGUCUGAUUCUGGUGAAUCUGCGAAUUCUGCUGU [C29U A40U]   not fulfilled
56  CGGGGCCACAGCGGAAGCGUUCACGUCGCGGCCCCUGUCAGAUUCUGGUGAAUCUGCGAAUUCUGCUGU [G1C A13G]   not fulfilled
57  GGGGGCCACAGCAGAAGCGUUCACGUCGCGGCCCCUGUGAGGUUCUGGUGAAUCUGCGAAUUCUGCUGU [C39G A42G]       fulfilled
58  GGGGGCCACAGCAGAAUCGUUCACGUCGCGGCCCCUGUCAGAUUCUAGUGAAUCUGCGAAUUCUGCUGU [G17U G47A]       fulfilled
59  GCGGGCCACAGCAGAACCGUUCACGUCGCGGCCCCUGUCAGAUUCUGGUGAAUCUGCGAAUUCUGCUGU [G2C G17C]   not fulfilled
60  GGGGGCCACAGCAGAAGCGUUCACGUCGCGGCCCCUGUGAGAUUCUGGUGAAACUGCGAAUUCUGCUGU [C39G U53A]       fulfilled
61  GGGGGCCACAGCAGAAGCGUUCACGACGCGGCCCCUGUCAGAUUCUGGUGUAUCUGCGAAUUCUGCUGU [U26A A51U]       fulfilled
62  GGGGGCCACAGCAGAAGCGUUCACGUCGCGGCCCCUGUCAGAUUCUGGUGACUCUGCUAAUUCUGCUGU [A52C G58U]       fulfilled
63  GGGGGCCACAGCAGAAGCGUUCACGUCGCGGCCCCUGCCAGAUUCUGGUGAAUCUGCGAAUUCUGCUAU [U38C G68A]       fulfilled
64  GGGGGCCACAGCAGAAGCGUUCACGUCGCGGCCCCUGUCAGAUUCUGGGGAAUCUGCGAAUGCUGCUGU [U49G U62G]       fulfilled
65  GGGGGCCACAGCAGAAGCGUUCACGUCGCGGCCCUUGUCAGAUUCUGGUGCAUCUGCGAAUUCUGCUGU [C35U A51C]       fulfilled
66  GGGGGCCACAGCAGAAGGGUUCACGUCGCGGCCCCUGUCAGACUCUGGUGAAUCUGCGAAUUCUGCUGU [C18G U43C]   not fulfilled
67  GGGGGGCACAGCAGAAGCGUUCACGUCGGGGCCCCUGUCAGAUUCUGGUGAAUCUGCGAAUUCUGCUGU [C6G C29G]   not fulfilled
68  GGGCGCCACAGCAGAAGCGUUCACGUCGCGGCCCCUGUCAGAUUCUGGUGAAUCUGCGAAUUAUGCUGU [G4C C63A]   not fulfilled
69  GGGGGCCACAGCAGAAGCGUUCACGUCGCGGCCCCUGUCAGAUUCUGGUGAAUCUACGAAUUCUUCUGU [G56A G65U]       fulfilled
70  GGGGGCCACAGCAGAAGCCUUCCCGUCGCGGCCCCUGUCAGAUUCUGGUGAAUCUGCGAAUUCUGCUGU [G19C A23C]   not fulfilled
71  GGGGGCCACAGCAGAAGCGUUGACGUCGCGGCCCCUGUCAGAUUCUGGUGAAUCUGCCAAUUCUGCUGU [C22G G58C]   not fulfilled
72  GGGGGCGACAGCAGAAGCGUUCACGUCGCGUCCCCUGUCAGAUUCUGGUGAAUCUGCGAAUUCUGCUGU [C7G G31U]       fulfilled
73  GGGGGCCACAGCAGAAGCGUUAACGUCGCGGCCCCUGUCAGAUUCUGGUGAAUUUGCGAAUUCUGCUGU [C22A C54U]   not fulfilled
